biological target: HLA-C0304 (Homo sapiens, UniProt P10321, A176E/A330V/A97T/C25G/C350S/D114A/D33Y/E197K/L119I/L127V/L171W/L218V/M285V/M309V/M331V/P208H/Q277E/Q291P/R243W/R45H/S123Y/S140Y/S297R/S48A/T118I/T187L/T329A/T363A/V319A); test: Competitive peptide binding assay, CIR-C0304; conditions: HMy2.CIR-C0304 cells, reference Cy5-[…], class from inhibition at 5 and 15 μM, flow cytometry MFI; read-out: Binding affinity with HLA-C0304
pIC50: −log10 of the molar value. Peptide text beside a SMILES is read from it.
assay_readout: pIC50

- CC(C)C[C@H](NC(=O)[C@H](CC(C)C)NC(=O)[C@H](Cc1ccccc1)NC(=O)[C@@H](NC(=O)[C@H](CCCNC(=N)N)NC(=O)[C@@H]1CCCN1C(=O)[C@H](CCC(N)=O)NC(=O)[C@H](CC(C)C)NC(=O)[C@@H](N)Cc1ccc(O)cc1)[C@@H](C)O)C(=O)O [Epitope M35] (H-YLQPRTFLL-OH; N-terminus and C-terminus assumed): < 4.82

* * *

Listing: IC50 of selected compounds
target: HLA-C0701 (Homo sapiens, UniProt P10321, K90N/S123Y); test: Competitive peptide binding assay, CIR-C0701; details: HMy2.CIR-C0701 cells, reference Cy5-[…], class from inhibition at 5 and 15 μM, flow cytometry MFI; read-out: Binding affinity with HLA-C 0701
Peptide text beside a SMILES is read from it.
assay_readout: IC50

- CC[C@H](C)[C@H](N)C(=O)N[C@@H](C)C(=O)N[C@@H](CCSC)C(=O)N[C@@H](C)C(=O)N[C@@H](CS)C(=O)N[C@@H](CC(C)C)C(=O)N[C@H](C(=O)NCC(=O)N[C@@H](CC(C)C)C(=O)O)C(C)C [Epitope M44] (H-IAMACLVGL-OH; N-terminus and C-terminus assumed): > 15 µM
- CC[C@H](C)[C@H](NC(=O)[C@H](C)NC(=O)[C@H](C)NC(=O)[C@H](CC(N)=O)NC(=O)CNC(=O)[C@H](CC(=O)O)NC(=O)[C@H](CCC(N)=O)NC(=O)[C@H](C)NC(=O)[C@@H](N)Cc1ccccc1)C(=O)O [Epitope M22] (H-FAQDGNAAI-OH; N-terminus and C-terminus assumed): > 15 µM
- CC(C)[C@H](NC(=O)[C@@H](N)Cc1ccccc1)C(=O)N[C@@H](CO)C(=O)N[C@@H](CC(N)=O)C(=O)NCC(=O)N[C@H](C(=O)N[C@@H](Cc1c[nH]cn1)C(=O)N[C@@H](Cc1c[nH]c2ccccc12)C(=O)N[C@@H](Cc1ccccc1)C(=O)O)[C@@H](C)O [Epitope M68] (H-FVSNGTHWF-OH; N-terminus and C-terminus assumed): > 15 µM
- C[C@H](NC(=O)[C@H](Cc1ccc(O)cc1)NC(=O)[C@H](C)NC(=O)[C@@H](N)Cc1ccccc1)C(=O)N[C@@H](CC(N)=O)C(=O)N[C@@H](CCCNC(=N)N)C(=O)N[C@@H](CC(N)=O)C(=O)N[C@@H](CCCNC(=N)N)C(=O)N[C@@H](Cc1ccccc1)C(=O)O [Epitope M43] (H-FAYANRNRF-OH; N-terminus and C-terminus assumed): < 5 µM
- CSCC[C@H](NC(=O)[C@H](CO)NC(=O)[C@H](CCCNC(=N)N)NC(=O)[C@@H](NC(=O)[C@H](CCCNC(=N)N)NC(=O)[C@H](C)NC(=O)[C@@H](N)Cc1ccccc1)[C@@H](C)O)C(=O)N[C@@H](Cc1c[nH]c2ccccc12)C(=O)N[C@@H](CO)C(=O)N[C@@H](Cc1ccccc1)C(=O)O [Epitope M71] (H-FARTRSMWSF-OH; N-terminus and C-terminus assumed): 5 to 15 µM
